B1: Osa-1-4 twister ribozyme (parent)
chain: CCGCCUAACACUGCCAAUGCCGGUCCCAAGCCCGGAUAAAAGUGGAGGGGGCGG

variants of: B1; experiment: self-cleavage, relative activity (ratio to wild type); higher = more cleavage; co-transcriptional
Returns y if the recorded self-cleavage is greater than or equal to 0.08, and n otherwise.

>  <variant_code>
C14A G45C

>  <group>
n

$$$$
>  <variant_code>
G44C U43G

>  <group>
n

$$$$
>  <variant_code>
A17G G13C

>  <group>
n

$$$$
>  <variant_code>
C31U G53C

>  <group>
n

$$$$
>  <variant_code>
A28C C27U

>  <group>
y

$$$$
>  <variant_code>
C21A G42U

>  <group>
n

$$$$
>  <variant_code>
A7U G51U

>  <group>
n

$$$$
>  <variant_code>
A41U G44C

>  <group>
y

$$$$
>  <variant_code>
A7G U12G

>  <group>
y

$$$$
>  <variant_code>
A8U G19U

>  <group>
n

$$$$
>  <variant_code>
C52A U12C

>  <group>
y

$$$$
>  <variant_code>
G54U U37C

>  <group>
y

$$$$

Data origin, for the record: the RNAGym collection of RNA variant scans (doi:10.1002/anie.201605470)
